Target: Glutamate receptor 2 (Homo sapiens)
Sequence (P42262 whole entry): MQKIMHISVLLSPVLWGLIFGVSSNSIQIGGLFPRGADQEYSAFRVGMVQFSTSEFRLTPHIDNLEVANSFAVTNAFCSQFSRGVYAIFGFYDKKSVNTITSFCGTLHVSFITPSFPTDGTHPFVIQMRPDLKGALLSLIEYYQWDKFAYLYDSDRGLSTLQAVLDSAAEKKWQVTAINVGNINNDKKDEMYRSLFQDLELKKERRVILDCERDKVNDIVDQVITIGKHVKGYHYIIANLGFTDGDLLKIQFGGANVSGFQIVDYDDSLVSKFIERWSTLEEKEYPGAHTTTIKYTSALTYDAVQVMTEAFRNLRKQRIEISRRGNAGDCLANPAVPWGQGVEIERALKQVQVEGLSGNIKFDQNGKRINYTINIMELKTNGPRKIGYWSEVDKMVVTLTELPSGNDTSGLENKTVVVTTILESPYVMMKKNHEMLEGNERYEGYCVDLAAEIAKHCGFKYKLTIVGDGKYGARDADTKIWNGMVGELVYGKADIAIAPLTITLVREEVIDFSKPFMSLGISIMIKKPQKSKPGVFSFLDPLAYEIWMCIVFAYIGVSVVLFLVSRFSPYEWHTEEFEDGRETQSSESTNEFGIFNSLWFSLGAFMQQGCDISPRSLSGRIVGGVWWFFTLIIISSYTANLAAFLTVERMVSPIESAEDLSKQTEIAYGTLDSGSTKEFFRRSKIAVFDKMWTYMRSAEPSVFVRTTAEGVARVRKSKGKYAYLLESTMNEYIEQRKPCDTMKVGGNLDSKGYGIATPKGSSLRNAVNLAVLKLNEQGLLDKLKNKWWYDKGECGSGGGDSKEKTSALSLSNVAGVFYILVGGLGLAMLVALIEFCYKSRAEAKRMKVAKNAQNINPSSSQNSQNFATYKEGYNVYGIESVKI
Experiment: Displacement of [3H]AMPA from homomeric recombinant GluA2 receptor (unknown origin)
pKi: −log10 of the molar value.
Everything with pKi lower than 5 is False; everything else, including exactly 5, is True.

Smiles str: Cc1ccc(-c2nnn[nH]2)c(N[C@H]2CC[C@H]3CN[C@H](C(=O)O)C[C@H]3C2)c1
Qualitative label: True

Smiles str: O=C(O)[C@@H]1C[C@H]2C[C@@H](Oc3cc(Oc4ccccc4)ccc3-c3nnn[nH]3)CC[C@H]2CN1
Qualitative label: False

Smiles str: Cl.O=C(O)[C@@H]1C[C@H]2C[C@@H](Oc3cc(-c4ccccc4)ccc3-c3nnn[nH]3)CC[C@H]2CN1
Qualitative label: True

Smiles str: Cl.O=C(O)[C@@H]1C[C@H]2C[C@@H](Oc3cccc(Cl)c3-c3nnn[nH]3)CC[C@H]2CN1
Qualitative label: False

Smiles str: Cl.O=C(O)[C@@H]1C[C@H]2C[C@@H](Sc3ccccc3-c3nnn[nH]3)CC[C@H]2CN1
Qualitative label: False

Here's the next entry for you.
*Q* # check: pKi of O=C(O)[C@@H]1C[C@H]2C[C@@H](Oc3cc(-c4cccc(Cl)c4)ccc3-c3nnn[nH]3)CC[C@H]2CN1 is greater than or equal to 5
*A* True
